- system_tested: dopamine D2 receptor (Homo sapiens)
- Sequence (P14416 whole entry, species assumed): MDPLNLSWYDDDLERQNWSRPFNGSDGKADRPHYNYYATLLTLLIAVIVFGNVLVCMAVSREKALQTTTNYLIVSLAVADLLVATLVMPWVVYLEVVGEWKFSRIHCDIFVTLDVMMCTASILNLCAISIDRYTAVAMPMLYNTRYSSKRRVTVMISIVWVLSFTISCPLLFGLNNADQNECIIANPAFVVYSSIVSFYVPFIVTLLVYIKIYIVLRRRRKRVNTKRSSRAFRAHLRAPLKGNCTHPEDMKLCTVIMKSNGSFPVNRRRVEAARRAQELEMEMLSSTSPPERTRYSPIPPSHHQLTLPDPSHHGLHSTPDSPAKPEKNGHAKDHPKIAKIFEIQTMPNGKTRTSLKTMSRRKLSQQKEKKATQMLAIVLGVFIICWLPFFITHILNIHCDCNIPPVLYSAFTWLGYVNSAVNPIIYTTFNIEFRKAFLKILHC
- experiment_notes: dopamine D2 receptor binding, metoclopramide alone and with dexamethasone added
- condition: metoclopramide alone; read-out: IC50 (the concentration that inhibits 50% of dopamine D2 binding)
parameter: pIC50
Interpret pIC50 as the negative base-10 log of the concentration measured in mol/L.

QUERY: Quickly give me recorded pIC50 for CCN(CC)CCNC(=O)c1cc(Cl)c(N)cc1OC [metoclopramide]
RESULT: 8.07

meta.source: patent US20020055495A1
